Origin of measurements: patent US20230115257A1

- assayed system: SARS-CoV-2 B.1.1.529 spike trimer variant (SARS-CoV-2 B.1.1.529 (Omicron), UniProt P0DTC2 16-1213)
- protocol: ELISA
measured property: EC50 (nM)
A number alone suffices; assume nM.

IN: Please list EC50 recorded for the binder 9-L13-A (antibody, V domains shown) VH: QVQLKESGPGLVAPSQSLSITCTVSGFSLTSYAISWVRQPPGKGLEWLGLIWTGGGTNYNSALKSRLSISKDNSKSQIFLKMNSLQTDDTARYYCARGPPLIYYGDLYYFDYWGQGTTLTVSS VL: DIQMTQSPSSLSASLGGKVTITCKASQDINKYIAWYQHKPGKGPRLLIHYTSTLQPGIPSRFSGSGSGRDYSFSISNLEPEDIATYYCLQYDNLWTFGGGTKLEIK
OUT: 10.9

IN: Please list EC50 recorded for the binder 4-K16-A (antibody, V domains shown) VH: QIQLVQSGPELKKPGETVKISCKASGYTFTTYGMSWVKQAPGKGLKWMGWMSTYSGVPTYADDFKGRFAFSLETSASTAYLQINNLKNEDTATYFCASGDVGYWGQGTTLTVSS VL: DIVMTQSQKFMSTSVGDRVSVTCKASQNVGTNVAWYQQKPGQSPKALIYSASYRYSGVPDRFTGSGSGTDFTLTISTVQSEDLAEYFCQQYNIYPSTFGGGTKLEIK
OUT: 0.94

IN: Please list EC50 recorded for the binder 1-B11-A (antibody, V domains shown) VH: QVQLQQSGPELVKPGASVKISCKASGYTFTDHYINWVKQRPGQGLEWIGWIFPGSGSTYYNEQFKGKATLTVDKSSNTAYMLLSSLTSEDSAVYFCARSGGLRLGFAYWGQGTLVTVSA VL: DIQMTQTTSSLSASLGDRVTISCRASQDISNYLNWYQQKPDGTVKLLIYYTSRLHSGVPSRFSGSGSGTDYSLTISNLEQEDISTYFCQQVNTLPYTFGGGTKLEIK
OUT: 1.88

IN: Please list EC50 recorded for the binder 10-B11-A (antibody, V domains shown) VH: QVQLQQPGAELVKPGASVKVSCKASGYTFTSYWMHWVKQRPGQGLEWIGRIHPSDSDTNYYQKFKGKATLSVDKSSSTAYMQLSSLTSEDSAVYYCAIPLYSYDNSGGYYPMDYWGQGTSVTVSS VL: DIVMTQSQKFMSTSVGDRVTITCKASQNVRTAVAWYQQKPGQSPKKLIYLASNRHTGVPDRFTGSGSGTDFTLAISNVQSEDLADYFCLQHWNYPFTFGSGTRLEIK
OUT: 1.16

IN: Please list EC50 recorded for the binder 8-H5-A (antibody, V domains shown) VH: QVTLKESGPGILQSSQTLSLTCSLSGFSLSTSGMGVSWVRQPSGKGLEWLAHIYWDDDKRYTPSLKSRLTISTDSSRKQVFLKITSVDTADTATYYCARRDLHDYDGWFAYWGQGTLVTVSA VL: DIVMTQSQKFMSTAVGDRVSVTCKASQNVGTNVAWYQQKPGQSPKALIYSASFRYSGVPDRFSGSGSGTDFTLTISNVQSEDLAEYFCQQYNSYPLTFGSGTKLEIK
OUT: 0.5

IN: Please list EC50 recorded for the binder 3-E13-A (antibody, V domains shown) VH: EVQLQQSGPELVKPGASVKMSCKASGYTFTDYNIHWVKQSHGKSLEWIGYINPNNGGTDYNQKFQGKATLTVNKSSSTAYMELRSLTSEDFAVYYCARGGFYGNYGAYYGMDFWGQGTSVTVSS VL: DIQMTQSPASLSASVGETVTITCRTSENIYSHLAWYQQTQGKSPQLLVYNAKTLAEGVPSRFSGSGSGTHFSLKINSLQPEDFGSYYCQHHYGIPPEFGGGTKLEIK
OUT: 0.35

IN: Please list EC50 recorded for the binder 9-P9-A (antibody, V domains shown) VH: DVKLVESGEGLVKPGGSLKLSCAASGFSFSNFGMSWVRQTPEKRLEWVAYISSGGDYIYYADTVKGRFTISRDNARNTLYLQMSSLKSEDTAIYYCTRGYFDYWGQGTTLTVSS VL: DVLMTQTPLSLPVSLGDQASISCRSSQSIVHSNGNTYLEWYLQKPGQSPKLLIYTVSNRFSGVPDRFSGSGSGTDFTLKISRVEAEDLGVYYCFQGSHVPYTFGGGTKLEMR
OUT: 0.29

IN: Please list EC50 recorded for the binder 4-C3-A (antibody, V domains shown) VH: EVQLQQSGPELVKPGASVKISCKASGYSFTGYYMHWVKQSHGNILDWIGYIYPYNGVSSYNQKFKGKATLTVDKSSSTAYMELRSLTSEASAVYYCARAYGSSYDYYYGLDYWGQGTSVTVSS VL: DIVLTQSPASLAVSLGQRATISCKASQSVDYDGAGYMNWYQQKPGQPPKLLISSASNLQSGIPARFSGSGSGTDFTLNIHPVEEEDAATYYCQQSNDDPYTFGGGTKLEIK
OUT: 0.71

IN: Please list EC50 recorded for the binder 2-P2-A (antibody, V domains shown) VH: EVQLQQSGAELVRPGSSVKMSCKTSGYTFTSYGINWVKQRPGQGLEWIGYIYIGNGYTEYNEKFKGKATLTSDTSSSTAYMQLSSLTSEDSAIYFCARGGVDYWGQGTTLTVSS VL: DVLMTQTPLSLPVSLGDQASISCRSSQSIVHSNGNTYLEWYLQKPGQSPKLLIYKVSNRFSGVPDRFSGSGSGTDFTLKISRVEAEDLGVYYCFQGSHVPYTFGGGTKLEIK
OUT: 0.58

IN: Please list EC50 recorded for the binder 4-N22-A (antibody, V domains shown) VH: QVQLQQPGTELVKPGASVKLSCKASGYTFTNYWMYWVKQRPGQGLDWIGNINPSNGGTNYNEKFKSKATLTVDKSSSTAYMQLSSLTSEDSAVYYCARETGNYWGQGTTLTVSS VL: DILMTQSPSSMSVSLGDTVSISCHASQGISSNIGWLQQKPGKSFKGLIYHGTNLEDGVPSRFSGSGSGADYSLTISSLESEDFADYYCVQYAQFPYTFGGGTKLEIK
OUT: 0.48
